Target: FPR2 (Homo sapiens)
Construct: expressed in transfected cells
Sequence (P25090 1-351): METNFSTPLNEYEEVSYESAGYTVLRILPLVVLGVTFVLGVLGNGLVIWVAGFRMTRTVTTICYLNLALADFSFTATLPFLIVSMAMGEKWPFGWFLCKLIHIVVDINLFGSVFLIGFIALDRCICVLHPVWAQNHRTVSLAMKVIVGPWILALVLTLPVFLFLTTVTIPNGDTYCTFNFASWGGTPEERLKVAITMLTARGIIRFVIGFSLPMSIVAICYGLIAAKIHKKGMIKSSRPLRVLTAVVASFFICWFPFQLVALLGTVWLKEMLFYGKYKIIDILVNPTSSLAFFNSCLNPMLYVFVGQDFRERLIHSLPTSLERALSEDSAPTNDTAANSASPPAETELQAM
Experiment: Compound-induced calcium activity (FLIPR Tetra) in CHO-Gα16 cells stably expressing FPR2
Format: cell-based
Details: efficacy value in brackets, read-out: FPR2 Ga16-CHO (% eff)
endpointLabel: Emax (%)
Enter your answer as a number in %; do not include the unit.

Here's what some known entries look like.
{"molecule": "CC(C)CC(CNC(=O)Nc1ccc(Br)cc1)C(=O)NCc1nnn[nH]1 (stereo not shown)", "unitDescriptor": "%", "Emax": 98}
{"molecule": "CC(C)CC(CNC(=O)Nc1ccc(Br)cc1)C(=O)N(C)C (stereo not shown)", "unitDescriptor": "%", "Emax": 92}

Data request: I have this molecule here, COC(=O)C(CNC(=O)CNC(=O)Nc1ccc(Br)cc1)CC(C)C (stereo not shown) , and I need its recorded Emax.
Data returned: 80

Data request: Give its Emax value. Item: CC(C)CC(CNC(=O)Nc1ccc(Br)cc1)C(=O)N(C)CC(=O)OC(C)(C)C (stereo not shown)
Data returned: 89

----------
target: FPR1 (Homo sapiens); construct: expressed in transfected cells; test: Compound-induced calcium activity (FLIPR Tetra) in CHO-Gα16 cells stably expressing FPR1; format: cell-based; conditions: ratio of the EC50 for agonizing FPR2 to the EC50 for agonizing FPR1
endpointLabel: Ratio FPR2:FPR1 (EC50)
Give the figure by itself; no unit, no explanation.

{"molecule": "CC(C)CC(CNC(=O)Nc1ccc(Br)cc1)C(=O)NCC(=O)OC(C)(C)C (stereo not shown)", "valueMeasured": 2.7}

Data request: Param item = CCC(CNC(=O)Nc1ccc(Br)cc1)C(=O)O (stereo not shown) ; retrieve measured Ratio FPR2:FPR1 (EC50).
Data returned: 1.1

Data request: # query: Ratio FPR2:FPR1 (EC50) of entry CC(C)CC(CNC(=O)Nc1ccc(Cl)cc1)C(=O)O (stereo not shown)
Data returned: 18

----------
biological target: FPR1 (Homo sapiens); construct: expressed in transfected cells; test: Compound-induced calcium activity (FLIPR Tetra) in CHO-Gα16 cells stably expressing FPR1; assay type: cell-based; conditions: efficacy value in brackets; CHO-Gα16 cells stably expressing FPR1; read-out: FPR1 Ga16-CHO (% eff)
endpointLabel: Emax
Report field: quantity (unit follows the number).

# example entries with known answers
{"compound": "CC(C)CC(CNC(=O)Nc1ccc(Br)cc1)C(=O)NCC(=O)O (stereo not drawn)", "Emax": "95%"}
{"compound": "O=C(Nc1ccc(Br)cc1)N[C@@H]1CCCC[C@H]1C(=O)O (relative stereo)", "Emax": "101%"}
{"compound": "CC(C)CC(CCNC(=O)Nc1ccc(Br)cc1)S(=O)(=O)O (stereo not drawn)", "Emax": "99%"}
{"compound": "COc1ccc(NC(=O)NCC(CC(C)C)C(=O)O)cc1 (stereo not drawn)", "Emax": "92%"}
{"compound": "CC(C)CC(CNC(=O)Nc1ccc(Cl)cc1)C(=O)O (stereo not drawn)", "Emax": "95%"}

Data request: Name the reported Emax value associated with the compound CC(C)CC(CNC(=O)Nc1ccc(Br)cc1)C(=O)NCc1nnn[nH]1 (stereo not drawn)
Data returned: 95%

Data request: So what does the record say about Emax for CC(C)CC(CNC(=O)Nc1ccc(Br)cc1)C(N)=O (stereo not drawn) ?
Data returned: 80%

Data request: Please report the recorded Emax for O=C(NCC(Cc1ccccc1)C(=O)O)Nc1ccc(Br)cc1 (stereo not drawn) .
Data returned: 94%

Data request: I would be grateful if you could share the reported Emax for CC(C)CC(CNC(=O)Nc1ccc(OC(F)(F)F)cc1)C(=O)O (stereo not drawn) .
Data returned: 81%

Data request: # Emax lookup, item COC(=O)C(CNC(=O)Nc1ccc(OC(F)(F)F)cc1)CC(C)C (stereo not drawn)
Data returned: 39%

Data request: Which Emax value is on record for CCC(CNC(=O)Nc1ccc(Br)cc1)C(=O)O (stereo not drawn) ?
Data returned: 85%

Data request: Return reported Emax; argument: CC(C)CC(CNC(=O)Nc1ccc(C(F)(F)F)cc1)C(=O)O (stereo not drawn)
Data returned: 105%

Data request: Query: Emax; subject: COC(=O)C(CNC(=O)CNC(=O)Nc1ccc(Br)cc1)CC(C)C (stereo not drawn)
Data returned: 77%

Data request: What does the record list as Emax for CC(C)CC(CNC(=O)Nc1ccc(Br)cc1)C(=O)N(C)CC(=O)O (stereo not drawn) ?
Data returned: 96%

Data request: Quick one: Emax of CC(C)CC(CNC(=O)Nc1ccc(Br)cc1F)C(=O)O (stereo not drawn) ?
Data returned: 98%

Data request: Entry COC(=O)C(CNC(=O)Nc1ccc(Br)cc1F)CC(C)C (stereo not drawn) has what Emax?
Data returned: 21%

Data request: May I ask what Emax has been recorded for COC(=O)C(CNC(=O)Nc1ccc(C(F)(F)F)cc1)CC(C)C (stereo not drawn) ?
Data returned: 57%

Data request: What value of Emax has been recorded for this entry: COC(=O)C(CNC(=O)Nc1ccc(Cl)cc1)CC(C)C (stereo not drawn)
Data returned: 50%

Data request: Need Emax of CC(C)CC(CNC(=O)CNC(=O)Nc1ccc(Br)cc1)C(=O)O (stereo not drawn) , thanks.
Data returned: 96%

Data request: Could you share which Emax value was measured for COC(=O)C(CNC(=O)Nc1ccc(OC)cc1)CC(C)C (stereo not drawn) ?
Data returned: 65%

Data request: Would you kindly share the measured Emax for CC(C)CC(CNC(=O)Nc1ccc(Br)cc1)C(=O)N(C)CC(=O)OC(C)(C)C (stereo not drawn) ?
Data returned: 73%

----------
Quick list: pEC50 per entry.
molecular target: FPR1 (Homo sapiens, UniProt P21462); assay: Compound-induced calcium activity (FLIPR Tetra) in CHO-Gα16 cells stably expressing FPR1; conditions: CHO-Gα16 cells stably expressing FPR1; calcium activity; tested 0.61 to 10,000 nM; read-out: FPR1 Ga16-CHO EC50
Sequence (P21462 whole entry): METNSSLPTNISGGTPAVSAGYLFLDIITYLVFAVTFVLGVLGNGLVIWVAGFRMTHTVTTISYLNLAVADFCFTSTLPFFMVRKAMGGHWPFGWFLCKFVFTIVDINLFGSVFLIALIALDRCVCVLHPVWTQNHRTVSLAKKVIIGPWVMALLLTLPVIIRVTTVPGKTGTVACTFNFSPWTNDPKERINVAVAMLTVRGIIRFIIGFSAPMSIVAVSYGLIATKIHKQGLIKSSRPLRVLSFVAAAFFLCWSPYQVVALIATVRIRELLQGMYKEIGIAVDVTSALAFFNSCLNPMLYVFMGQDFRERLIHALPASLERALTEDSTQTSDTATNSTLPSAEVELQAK
// returns pEC50 (minus log10 of molar concentration), number only

Example entries and their recorded answers appear below.
{"compound": "CC(C)CC(CNC(=O)CNC(=O)Nc1ccc(Br)cc1)C(=O)O (centres unmarked)", "measurementTarget": "FPR1 (Homo sapiens, UniProt P21462)", "pEC50": 7.72}
{"compound": "COC(=O)C(CNC(=O)CNC(=O)Nc1ccc(Br)cc1)CC(C)C (centres unmarked)", "measurementTarget": "FPR1 (Homo sapiens, UniProt P21462)", "pEC50": 5.59}

Data request: Recorded pEC50 of O=C(NCC(Cc1ccccc1)C(=O)O)Nc1ccc(Br)cc1 (centres unmarked) , please.
Data returned: 7.17

Data request: Recorded pEC50 for CCCC(CNC(=O)Nc1ccc(Br)cc1)C(=O)O (centres unmarked) , please?
Data returned: 6.61

Data request: I would be grateful if you could share the reported pEC50 for CC(C)CC(CNC(=O)Nc1ccc(Br)cc1)C(=O)NCC(=O)OC(C)(C)C (centres unmarked) .
Data returned: 6.26

Data request: Give the measured pEC50 of O=C(Nc1ccc(Br)cc1)NC1CCCCCCC1C(=O)O (centres unmarked) .
Data returned: 7.29

Data request: I am curious: what pEC50 value has been reported for CC(C)CC(CNC(=O)Nc1ccc(Br)cc1)C(=O)N(C)C (centres unmarked) ?
Data returned: 5.20

Data request: Name the recorded pEC50 for COC(=O)C(CNC(=O)Nc1ccc(Br)cc1)CC(C)C (centres unmarked) .
Data returned: 5.39

Data request: Name the reported pEC50 value associated with the compound CCC(CNC(=O)Nc1ccc(Br)cc1)C(=O)O (centres unmarked)
Data returned: 5.67

Data request: Given CC(C)CC(CNC(=O)Nc1ccc(Cl)cc1)C(=O)O (centres unmarked) , state its recorded pEC50.
Data returned: 6.79

----------
molecular target: FPR2 (Homo sapiens); experiment: Compound-induced calcium activity (FLIPR Tetra) in CHO-Gα16 cells stably expressing FPR2; conditions: calcium activity, tested 0.61 to 10,000 nM, read-out: FPR2 Ga16-CHO EC50
endpointLabel: pEC50
pEC50 here is simply -log10 of the concentration when that concentration is written in mol/L.

{"molecule": "CC(C)CC(CNC(=O)Nc1ccc(Br)cc1)C(=O)NCC(=O)OC(C)(C)C (stereo not shown)", "measurementTarget": "FPR2 (Homo sapiens)", "valueMeasured": 5.82}
{"molecule": "CC(C)CC(CNC(=O)Nc1ccc(Br)cc1)C(=O)N(C)CC(=O)O (stereo not shown)", "measurementTarget": "FPR2 (Homo sapiens)", "valueMeasured": 7.92}
{"molecule": "O=C(Nc1ccc(Br)cc1)NC1CCCCCCC1C(=O)O (stereo not shown)", "measurementTarget": "FPR2 (Homo sapiens)", "valueMeasured": 7.09}
{"molecule": "COC(=O)C(CNC(=O)CNC(=O)Nc1ccc(Br)cc1)CC(C)C (stereo not shown)", "measurementTarget": "FPR2 (Homo sapiens)", "valueMeasured": 5.66}
{"molecule": "O=C(Nc1ccc(Br)cc1)N[C@@H]1CCCC[C@H]1C(=O)O (relative stereo)", "measurementTarget": "FPR2 (Homo sapiens)", "valueMeasured": 6.61}
{"molecule": "CC(C)CC(CNC(=O)Nc1ccc(Br)cc1F)C(=O)O (stereo not shown)", "measurementTarget": "FPR2 (Homo sapiens)", "valueMeasured": 5.72}
{"molecule": "O=C(NCC(Cc1ccccc1)C(=O)O)Nc1ccc(Br)cc1 (stereo not shown)", "measurementTarget": "FPR2 (Homo sapiens)", "valueMeasured": 6.45}
{"molecule": "CC(C)CC(CNC(=O)Nc1ccc(Br)cc1)C(=O)NCC(=O)O (stereo not shown)", "measurementTarget": "FPR2 (Homo sapiens)", "valueMeasured": 6.00}
{"molecule": "COC(=O)C(CNC(=O)Nc1ccc(C(F)(F)F)cc1)CC(C)C (stereo not shown)", "measurementTarget": "FPR2 (Homo sapiens)", "valueMeasured": 5.66}
{"molecule": "COC(=O)C(CNC(=O)Nc1ccc(OC)cc1)CC(C)C (stereo not shown)", "measurementTarget": "FPR2 (Homo sapiens)", "valueMeasured": 6.27}

Data request: Record COC(=O)C(CNC(=O)Nc1ccc(Br)cc1)CC(C)C (stereo not shown) : what is its pEC50 with FPR2 (Homo sapiens)?
Data returned: 6.17

Data request: Entry CC(C)CC(CCNC(=O)Nc1ccc(Br)cc1)S(=O)(=O)O (stereo not shown) , system FPR2 (Homo sapiens): what pEC50 was measured?
Data returned: 5.90

Data request: Lab request: please report pEC50 under test system FPR2 (Homo sapiens) for CCC(CNC(=O)Nc1ccc(Br)cc1)C(=O)O (stereo not shown)
Data returned: 5.64

Data request: Report pEC50 for CC(C)CC(CNC(=O)Nc1ccc(C(F)(F)F)cc1)C(=O)O (stereo not shown) tested on FPR2 (Homo sapiens).
Data returned: 5.87

Data request: Record COC(=O)C(CNC(=O)Nc1ccc(Cl)cc1)CC(C)C (stereo not shown) : what is its pEC50 with FPR2 (Homo sapiens)?
Data returned: 5.88

Data request: Request - read-out pEC50 | tested on FPR2 (Homo sapiens) | molecule CC(CNC(=O)Nc1ccc(Br)cc1)C(=O)O (stereo not shown)
Data returned: 5.51

Data request: API: value(readout=pEC50, system=FPR2 (Homo sapiens)) for record CCCC(CNC(=O)Nc1ccc(Br)cc1)C(=O)O (stereo not shown)
Data returned: 5.88

Data request: Short answer please: pEC50, FPR2 (Homo sapiens), entry CC(C)CC(CNC(=O)Nc1ccc(Br)cc1)C(=O)N(C)CC(=O)OC(C)(C)C (stereo not shown)
Data returned: 5.99

Data request: For FPR2 (Homo sapiens), provide pEC50 of CC(C)CC(CNC(=O)Nc1ccc(Br)cc1)C(N)=O (stereo not shown) please.
Data returned: 6.01

Data request: Please tell me: pEC50 of CC(C)CC(CNC(=O)Nc1ccc(Br)cc1)C(=O)N(C)C (stereo not shown) , system FPR2 (Homo sapiens)?
Data returned: 6.50
